# Tested Target: 5HT1A receptors of isolated membranes of rat brain (Rattus norvegicus, UniProt P19327)
# Construct: isolated membranes of rat brain
# Sequence (P19327 whole entry): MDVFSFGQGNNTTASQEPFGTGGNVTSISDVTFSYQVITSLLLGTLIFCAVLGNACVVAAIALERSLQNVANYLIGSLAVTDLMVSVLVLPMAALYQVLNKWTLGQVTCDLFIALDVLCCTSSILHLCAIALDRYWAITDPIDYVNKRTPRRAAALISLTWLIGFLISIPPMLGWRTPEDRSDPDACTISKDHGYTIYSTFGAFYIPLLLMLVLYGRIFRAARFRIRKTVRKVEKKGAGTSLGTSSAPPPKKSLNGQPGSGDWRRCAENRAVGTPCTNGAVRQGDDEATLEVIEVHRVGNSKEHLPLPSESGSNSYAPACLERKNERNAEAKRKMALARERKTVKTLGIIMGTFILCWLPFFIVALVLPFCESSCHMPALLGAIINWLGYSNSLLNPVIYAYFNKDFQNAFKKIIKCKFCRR
# Test Protocol: Binding to 5HT1A receptors, shifting of [3H]8-OH-DPAT
# Condition: 100 nmol/l mesulergine
Measure Name: IC50

Look over these answered cases.
Noted for c1ccc(Oc2ccc3[nH]c4c(c3c2)CNCC4)cc1 : its IC50 reads 30 µM

Input c1ccc(CN2CCc3[nH]c4ccc(Oc5ccccc5)cc4c3C2)cc1 . Output IC50: > 10 µM

--- query ---
IC50 measured on Cl.c1ccc(CN2CCc3[nH]c4ccc(Oc5ccccc5)cc4c3C2)cc1 = > 5 µM
